test system: NB4 cell line; assay: leukemia cell growth inhibition, MTT; type: cell-based; settings: Homo sapiens, NB-4; NB4, 72 h
Reported Endpoint: IC50 (µg/mL)

Worked set:
CN(C)CCCNC(=O)C1C[C@@]2(C)C(CC[C@]3(C)C2CC=C2C4CC(C)(C)CC[C@]4(C(=O)O)CC[C@]23C)C(C)(C)C1=O (stereo partly drawn)
10.8
CCN(CC)CCNC(=O)C1C[C@@]2(C)C(CC[C@]3(C)C2CC=C2C4CC(C)(C)CC[C@]4(C(=O)OC)CC[C@]23C)C(C)(C)C1=O (stereo partly drawn)
2.79

(I) COC(=O)[C@]12CCC(C)(C)CC1C1=CCC3[C@@]4(C)CC(C(=O)NCCCN5CCOCC5)C(=O)C(C)(C)C4CC[C@@]3(C)[C@]1(C)CC2 (stereo partly drawn)
(II) CCN(CC)CCCNC(=O)C1C[C@]2(C)[C@H]3CC=C4[C@@H]5CC(C)(C)CC[C@]5(C(=O)OC)CC[C@@]4(C)[C@]3(C)CC[C@H]2C(C)(C)C1=O (stereo partly drawn)
(III) CCN(CC)CCCNC(=O)C1C[C@@]2(C)C(CC[C@]3(C)C2CC=C2C4CC(C)(C)CC[C@]4(C(=O)O)CC[C@]23C)C(C)(C)C1=O (stereo partly drawn)
hey, can you rank those compounds up there by IC50? biggest number first please Reply with the labels, ordered as the question asks.
III, I, II
(III: 6.86 µg/mL, I: 4.59 µg/mL, II: 2.96 µg/mL)
